Reference for the values: patent US9090628B2

testSystem: p110 delta (Homo sapiens (Human), UniProt O00329)
Sequence (O00329 whole entry, canonical isoform): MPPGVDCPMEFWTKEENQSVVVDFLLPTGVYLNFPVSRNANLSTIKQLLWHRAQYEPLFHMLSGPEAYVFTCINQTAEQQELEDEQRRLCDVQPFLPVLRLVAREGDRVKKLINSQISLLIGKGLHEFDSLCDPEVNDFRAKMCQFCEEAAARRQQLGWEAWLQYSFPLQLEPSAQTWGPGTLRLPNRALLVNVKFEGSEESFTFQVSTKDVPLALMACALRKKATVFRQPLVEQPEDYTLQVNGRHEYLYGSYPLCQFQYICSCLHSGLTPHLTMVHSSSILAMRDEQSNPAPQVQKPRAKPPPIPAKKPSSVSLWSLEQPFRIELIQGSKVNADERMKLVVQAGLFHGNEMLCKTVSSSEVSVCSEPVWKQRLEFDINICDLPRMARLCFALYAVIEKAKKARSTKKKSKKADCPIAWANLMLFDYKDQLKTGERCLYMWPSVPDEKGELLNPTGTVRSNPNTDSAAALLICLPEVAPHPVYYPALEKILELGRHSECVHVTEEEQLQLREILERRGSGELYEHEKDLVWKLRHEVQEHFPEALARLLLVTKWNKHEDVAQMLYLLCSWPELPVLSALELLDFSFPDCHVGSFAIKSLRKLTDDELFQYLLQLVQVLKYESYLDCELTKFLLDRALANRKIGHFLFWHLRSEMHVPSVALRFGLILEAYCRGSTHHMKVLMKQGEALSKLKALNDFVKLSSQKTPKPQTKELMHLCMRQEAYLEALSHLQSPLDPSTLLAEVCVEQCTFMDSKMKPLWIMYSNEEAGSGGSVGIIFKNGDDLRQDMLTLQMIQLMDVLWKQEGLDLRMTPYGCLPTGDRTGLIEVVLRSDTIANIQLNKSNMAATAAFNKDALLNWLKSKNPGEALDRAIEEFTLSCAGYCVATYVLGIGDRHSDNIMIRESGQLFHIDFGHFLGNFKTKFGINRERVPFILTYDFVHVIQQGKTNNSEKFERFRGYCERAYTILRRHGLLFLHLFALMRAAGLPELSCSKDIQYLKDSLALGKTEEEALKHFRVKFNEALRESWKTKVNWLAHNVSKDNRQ
Sequence (P27986 whole entry partner, canonical isoform): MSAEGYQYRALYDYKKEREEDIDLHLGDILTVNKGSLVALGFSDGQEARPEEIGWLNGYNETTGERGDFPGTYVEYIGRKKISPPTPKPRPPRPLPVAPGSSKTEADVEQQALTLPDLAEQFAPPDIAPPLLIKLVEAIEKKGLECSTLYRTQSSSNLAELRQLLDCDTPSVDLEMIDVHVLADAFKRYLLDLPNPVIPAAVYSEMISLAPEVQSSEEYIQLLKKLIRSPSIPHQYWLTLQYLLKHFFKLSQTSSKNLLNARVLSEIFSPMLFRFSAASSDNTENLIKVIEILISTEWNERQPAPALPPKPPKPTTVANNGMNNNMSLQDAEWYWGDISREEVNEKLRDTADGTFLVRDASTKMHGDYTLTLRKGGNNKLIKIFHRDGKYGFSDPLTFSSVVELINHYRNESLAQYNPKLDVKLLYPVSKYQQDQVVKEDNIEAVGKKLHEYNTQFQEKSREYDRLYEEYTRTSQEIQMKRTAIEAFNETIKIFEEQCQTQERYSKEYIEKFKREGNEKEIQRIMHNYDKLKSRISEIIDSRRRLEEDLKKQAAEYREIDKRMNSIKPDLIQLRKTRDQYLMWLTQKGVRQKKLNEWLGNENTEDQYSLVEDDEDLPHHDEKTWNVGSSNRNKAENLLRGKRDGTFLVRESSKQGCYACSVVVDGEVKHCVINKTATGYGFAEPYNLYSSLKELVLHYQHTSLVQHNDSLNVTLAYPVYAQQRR
experiment: PI3K isoform inhibition assay, p110 delta (fluorescence polarization displacement)
pIC50: −log10 of the molar value.
Listed below: pIC50 values for each entry.

molecule	pIC50
Cc1nc(-c2cn3c(n2)-c2ccc(-n4ccnc4C4CCCN(C(C)C)C4)cc2OCC3)n(C(C)C)n1 (centres unmarked) [Example 369]	8.51
Cc1nc(-c2cn3c(n2)-c2ccc(-c4cnn(C(C)C)c4CN4CCN(C(C)(C)C)CC4)cc2OCC3)n(C(C)C)n1 [Example 277]	8.40
Cc1nc(-c2cn3c(n2)-c2ccc(OC4(C)CNC4)cc2OCC3)n(C(C)C)n1 [Example 271]	9.20
Cc1cc2c(cc1-c1ccnn1C1CCN(C)CC1)OCCn1cc(-c3ncnn3C(C)C)nc1-2 [Example 264]	7.76
CC(C)n1ncnc1-c1cn2c(n1)-c1cnc(N3CCCC3C3CCN(C)CC3)cc1OCC2 (centres unmarked) [Example 106]	9.27
Cc1nc(-c2cn3c(n2)-c2cc(-c4ccnn4[C@@H]4CCCN(C(C)C)C4)c(F)cc2OCC3)n(C(C)C)n1 [Example 315]	9.36
Cc1nc(-c2cn3c(n2)-c2cc([C@H](C)N4CCN(CC(C)(C)O)CC4)c(F)cc2OCC3)n(C(C)C)n1 [Example 336]	7.57
Cc1nc(-c2cn3c(n2)-c2ccc(N4CCCC4C4CCN(S(C)(=O)=O)CC4)cc2OCC3)n(C(C)C)n1 (centres unmarked) [Example 306]	8.93
Cc1nc(-c2cn3c(n2)-c2ccc(-c4ccnn4C4CCCN(C5(C)COC5)C4)cc2OCC3)n(C(C)C)n1 (centres unmarked) [Example 285]	8.86
Cc1nc(-c2cn3c(n2)-c2cc([C@H](C)N4CCN(C(C)(C)CO)CC4)c(F)cc2OCC3)n(C(C)C)n1 [Example 350]	8.70
Cc1nc(-c2cn3c(n2)-c2ccc(-c4ncnn4C4CCN(C(C)(C)C)CC4)cc2OCC3)n(C(C)C)n1 [Example 258]	7.09
Cc1nc(-c2cn3c(n2)-c2cc([C@H](C)N4CCN(C(C)C)CC4)c(C)cc2OCC3)n(C(C)C)n1 [Example 332]	9.17
CC(C)n1ncnc1-c1cn2c(n1)-c1cc(CN3CCN(C(C)(C)C)CC3)ccc1OCC2 [Example 108]	8.61
Cc1nc(-c2cn3c(n2)-c2cc([C@@H](C)N4CCN(C(C)(C)C)CC4)ncc2OCC3)n(C(C)C)n1 [Example 305]	8.55
Cc1nc(-c2cn3c(n2)-c2ccc(OC4(CC(C)C)CN(C(C)C)C4)cc2OCC3)n(C(C)C)n1 [Example 301]	8.06
Cc1nc(-c2cn3c(n2)-c2ccc(N4CCC4[C@@H]4CCCN(C(C)C)C4)cc2OCC3)n(C(C)C)n1 (some centres unmarked) [Example 342]	9.80
Cc1nc(-c2cn3c(n2)-c2cc([C@@H](C)N4CCN(C(C)(C)CO)CC4)c(F)cc2OCC3)n(C(C)C)n1 [Example 347]	8.26
Cc1nc(-c2cn3c(n2)-c2cc([C@@H](C)N4CCN(C(C)(C)CO)CC4)ncc2OCC3)n(C(C)C)n1 [Example 365]	8.58
Cc1nc(-c2cn3c(n2)-c2ccc(N4CCCC4C4CCCCN4C)cc2OCC3)n(C(C)C)n1 (centres unmarked) [Example 323]	8.71
Cc1nc(-c2cn3c(n2)-c2ccc(N4CCCC4C4CCN(CC(C)(C)O)CC4)cc2OCC3)n(C(C)C)n1 (centres unmarked) [Example 272]	9.01
CC(C)n1nc(N)nc1-c1cn2c(n1)-c1ccc(-c3ccnn3C3CCN(C(C)(C)C)CC3)cc1OCC2 [Example 327]	8.41
Cc1nc(-c2cn3c(n2)-c2cc(C(C)N4CCN(CC(C)(C)O)CC4)c(C)cc2OCC3)n(C(C)C)n1 (centres unmarked) [Example 349]	8.38
Cc1nc(-c2cn3c(n2)-c2cc(C(C)N4CCN(C5COC5)CC4)c(C)cc2OCC3)n(C(C)C)n1 (centres unmarked) [Example 345]	8.05
Cc1nc(-c2cn3c(n2)-c2ccc(-c4cnn(C)c4C4CC(N(C)C(C)C)CCO4)cc2OCC3)n(C(C)C)n1 (centres unmarked) [Example 335]	8.64
Cc1nc(-c2cn3c(n2)-c2ccc(OC4(CC5CC5)CN(C(C)C)C4)cc2OCC3)n(C(C)C)n1 [Example 283]	9.03
Cc1nc(-c2cn3c(n2)-c2ccc(-c4cnn(C)c4C4CN(C(C)C)CCO4)cc2OCC3)n(C(C)C)n1 (centres unmarked) [Example 372]	9.00
Cc1nc(-c2cn3c(n2)-c2cc([C@@H](C)N4CCN(C(C)C)CC4)c(C)cc2OCC3)n(C(C)C)n1 [Example 331]	9.06
Cc1nc(-c2cn3c(n2)-c2cc(-c4cnn(C)c4C4CCCN(C(C)C)C4)c(F)cc2OCC3)n(C(C)C)n1 (centres unmarked) [Example 359]	9.43
COc1cc2c(cc1[C@@H](C)N1CCN(C(C)(C)C)CC1)-c1nc(-c3nc(C)nn3C(C)C)cn1CCO2 [Example 368]	8.97
